Reported inhibition % of the uptake of ^3 H noradrenalin is given for each of the following compounds.
- Test system: uptake of ^3 H noradrenalin by the synaptosomes of a rat hypothalamus homogenate
- TEST DETAILS: inhibition of the uptake of ^3 H noradrenalin by synaptosomes of a rat hypothalamus homogenate
- Type: biochemical
- CONDITION SUMMARY: ultimate molar concentration 5 × 10^-5 M; with respect to the control test
MEASURED METRIC: inhibition % of the uptake of ^3 H noradrenalin (%)

CCCCNC(=N)NC(=N)Nc1onc(C)c1C [Example 26] | 39.6
CCCN1CCN(C(=N)NC(=N)Nc2cc(C)on2)CC1 [Example 28] | 20
Cc1noc(NC(=N)NC(=N)N)c1C [Example 25] | 45.5
Cc1conc1NC(=N)NC(=N)N1CCN(C)CC1 [Example 29] | 65.8
Cc1conc1NC(=N)NC(=N)N [Example 8] | 55
